Tested on: OVCAR-5 ovarian
test_description: NCI tumour cell line growth inhibition, 48 h
Cut-off 8 µM on TGI, inclusive. At or above means Fulfilled; below means Not fulfilled.

# compound, discrete_label
rows = [
    ("COc1cc2nc(N3CCCC3)nc(NCC3CCCCC3)c2cc1OC", "Not fulfilled"),
    ("COC(=O)c1ccc2c(O)c(O)ccc2c1", "Fulfilled"),
    ("CC(CN1CCN(CCOCCO)CC1)CN1c2ccccc2Sc2ccc(Cl)cc21 (stereo not given)", "Not fulfilled"),
    ("CC(C)[C@@H]1NC(=O)[C@H]2N=C(O[C@@H]2C)[C@@H]2CCCN2C(=O)[C@H](Cc2ccccc2)NC(=O)[C@@H]2CSC(=N2)[C@@H](Cc2ccccc2)NC(=O)[C@@H]2CSC1=N2", "Fulfilled"),
    ("Cn1cnc2nc(Cl)nc(NC(C)(C)C(C)(C)O)c21", "Fulfilled"),
    ("COC(=O)c1c2n(c3ccccc13)C[C@H]1OC(C)(C)O[C@@H]21", "Fulfilled"),
    ("O=c1oc2ccccc2cc1/C=N/N1C(=S)N(c2ccccc2)C(=Nc2ccccc2)C1=Nc1ccccc1", "Fulfilled"),
    ("C/C=C/[P+](c1ccccc1)(c1ccccc1)c1ccccc1", "Fulfilled"),
    ("COc1ccc2[nH]c3c(c2c1)CCn1c-3nc2ccccc2c1=O", "Fulfilled"),
    ("CCOC1(COP(=O)(OCc2ccccc2)OCc2ccccc2)COC(COP(=O)(OCc2ccccc2)OCc2ccccc2)(OCC)CO1 (stereo not given)", "Fulfilled"),
    ("CSCC1CC(c2ccc(Cl)cc2)=NO1 (stereo not given)", "Fulfilled"),
    ("CN(CCO)c1nc2c(c(=O)[nH]1)CCC2", "Fulfilled"),
    ("CC(=O)Nc1ccccc1SCCSSCCSc1ccccc1NC(C)=O", "Fulfilled"),
    ("CCOC(=O)C1=C(NC)OC/C1=N\\NC(=O)c1ccccc1O", "Fulfilled"),
    ("CCOC(=O)C1Oc2ccc([N+](=O)[O-])c3c2C1(O)CCC3 (stereo not given)", "Fulfilled"),
    ("O=C1C(=O)c2c(nc3ccc(Cl)cn23)-c2ccccc21", "Not fulfilled"),
    ("CC1=NN(c2ccccc2)C(=O)/C1=C/c1ccc(O)cc1", "Fulfilled"),
    ("COc1cc2cc(C(=O)N3CC(CCl)c4ccc(O)cc43)[nH]c2c(OC)c1OC (stereo not given)", "Not fulfilled"),
    ("CCCCCCCCCCCCCCCCCC(=O)OCC(COC1OC(COP(=O)(O)O)C(O)C(O)C1O)OC(=O)CCCCCCCCCCCCCCCCC (stereo not given)", "Fulfilled"),
]
